Biological target: Steroid 17-alpha-hydroxylase/17,20 lyase (Rattus norvegicus)
Sequence (P11715 whole entry): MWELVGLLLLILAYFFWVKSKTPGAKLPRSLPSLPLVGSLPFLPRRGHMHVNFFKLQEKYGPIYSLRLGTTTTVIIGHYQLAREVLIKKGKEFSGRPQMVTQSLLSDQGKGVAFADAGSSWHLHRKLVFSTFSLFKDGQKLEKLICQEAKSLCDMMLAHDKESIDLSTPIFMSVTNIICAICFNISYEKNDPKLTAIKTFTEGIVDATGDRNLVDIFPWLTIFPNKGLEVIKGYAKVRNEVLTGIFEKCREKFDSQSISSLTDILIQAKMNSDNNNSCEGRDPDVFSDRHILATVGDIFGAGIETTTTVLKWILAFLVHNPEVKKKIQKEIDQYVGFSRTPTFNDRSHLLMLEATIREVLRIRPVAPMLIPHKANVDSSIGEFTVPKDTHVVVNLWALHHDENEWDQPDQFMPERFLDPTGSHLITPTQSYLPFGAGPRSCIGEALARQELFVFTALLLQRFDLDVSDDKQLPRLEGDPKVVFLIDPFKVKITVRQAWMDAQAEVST
Assay: Inhibiton of Sprague-Dawley rat testicular microsomal suspension CYP17A1 17-alpha hydroxylase activity using radiolabelled progesterone as substrate preincubated for 5 mins followed by enzyme addition incubated for 15 mins in presence of NADPH generating system
Type: ADME, microsomes, Testis, Microsome
Measurement kind: pIC50
In simple prose, pIC50 is minus the logarithm base ten of a concentration in moles per litre.

q: Requested read-out: pIC50. Entry: Brc1ccc(CCCCCn2ccnc2)cc1
a: 6.30

# credit: ChEMBL document CHEMBL5338784
